system: Escherichia coli; experiment: Antibacterial activity against Escherichia coli ATCC 25922 assessed as log reduction in bacterial count at 10 uM incubated in dark for 30 mins followed by exposure to light fluences at 650 nm and 6 J/cm2 and then incubated overnight measured after 24 hrs; format: functional
Documented log reduction in bacterial count across a set of compounds
Lab note: record just the number, no unit beside it.

For orientation, consider the following solved cases.
1) NCCCC[C@H](N)C(=O)Nc1ccc(-c2c3nc(c(-c4ccccc4)c4ccc([nH]4)c(-c4ccc(NC(=O)[C@@H](N)CCCCN)cc4)c4nc(c(-c5ccccc5)c5ccc2[nH]5)C=C4)C=C3)cc1; 2
2) NCCCC[C@H](N)C(=O)Nc1ccc(-c2c3nc(c(-c4ccc(N)cc4)c4ccc([nH]4)c(-c4ccc(NC(=O)[C@@H](N)CCCCN)cc4)c4nc(c(-c5ccc(N)cc5)c5ccc2[nH]5)C=C4)C=C3)cc1; 2
3) NCCCC[C@H](N)C(=O)Nc1ccc(-c2c3nc(c(-c4ccc(NC(=O)[C@@H](N)CCCCN)cc4)c4ccc([nH]4)c(-c4ccccc4)c4nc(c(-c5ccccc5)c5ccc2[nH]5)C=C4)C=C3)cc1; 2

// moving on: another record for log reduction in bacterial count
Input "NCCCC[C@H](N)C(=O)Nc1ccc(-c2c3nc(c(-c4ccc(NC(=O)[C@@H](N)CCCCN)cc4)c4ccc([nH]4)c(-c4ccc(NC(=O)[C@@H](N)CCCCN)cc4)c4nc(c(-c5ccc(N)cc5)c5ccc2[nH]5)C=C4)C=C3)cc1" . Output log reduction in bacterial count: 3

====

test system: Escherichia coli; assay: Antibacterial activity against Escherichia coli ATCC 25922 incubated in dark for 30 mins followed by exposure to light fluences at 650 nm and 6 J/cm2 and then incubated overnight measured after 24 hrs; type: functional; settings: ATCC 25922, light or radiation study
Documented MIC across a set of compounds
Hi! Could you send only the number? It should be in µM, unit omitted.

1. N=C(N)NCCC[C@H](N)C(=O)Nc1ccc(-c2c3nc(c(-c4ccc(N)cc4)c4ccc([nH]4)c(-c4ccc(N)cc4)c4nc(c(-c5ccc(N)cc5)c5ccc2[nH]5)C=C4)C=C3)cc1; 62.5

// moving on: another record for MIC
Input "NCCCC[C@H](N)C(=O)Nc1ccc(-c2c3nc(c(-c4ccc(NC(=O)[C@@H](N)CCCCN)cc4)c4ccc([nH]4)c(-c4ccc(NC(=O)[C@@H](N)CCCCN)cc4)c4nc(c(-c5ccc(NC(=O)[C@@H](N)CCCCN)cc5)c5ccc2[nH]5)C=C4)C=C3)cc1" . Output MIC: 1.95

====

system: Staphylococcus aureus; assay: Antibacterial activity against methicillin-resistant Staphylococcus aureus incubated in dark for 30 mins measured after 24 hrs; format: functional
Documented MIC across a set of compounds
Hi! Could you send only the number? It should be in µM, unit omitted.

Input "NCCCC[C@H](N)C(=O)Nc1ccc(-c2c3nc(c(-c4ccc(N)cc4)c4ccc([nH]4)c(-c4ccc(N)cc4)c4nc(c(-c5ccc(N)cc5)c5ccc2[nH]5)C=C4)C=C3)cc1" . Output MIC: 250

Input "NCCCC[C@H](N)C(=O)Nc1ccc(-c2c3nc(c(-c4ccc(N)cc4)c4ccc([nH]4)c(-c4ccccc4)c4nc(c(-c5ccccc5)c5ccc2[nH]5)C=C4)C=C3)cc1" . Output MIC: 125

Input "NCCCC[C@H](N)C(=O)Nc1ccc(-c2c3nc(c(-c4ccc(N)cc4)c4ccc([nH]4)c(-c4ccc(NC(=O)[C@@H](N)CCCCN)cc4)c4nc(c(-c5ccc(N)cc5)c5ccc2[nH]5)C=C4)C=C3)cc1" . Output MIC: 125

Input "Nc1ccc(-c2c3nc(c(-c4ccc(N)cc4)c4ccc([nH]4)c(-c4ccc(N)cc4)c4nc(c(-c5ccc(N)cc5)c5ccc2[nH]5)C=C4)C=C3)cc1" . Output MIC: 125

Input "NCCCC[C@H](N)C(=O)Nc1ccc(-c2c3nc(c(-c4ccc(NC(=O)[C@@H](N)CCCCN)cc4)c4ccc([nH]4)c(-c4ccc(NC(=O)[C@@H](N)CCCCN)cc4)c4nc(c(-c5ccc(NC(=O)[C@@H](N)CCCCN)cc5)c5ccc2[nH]5)C=C4)C=C3)cc1" . Output MIC: 62.5
